Cited source: paper PMC9115881

Biological target: UniProt P0DTD1
Assay: biochemical
Assay type: biochemical
Conditions: Table 1; M^pro […], 37mer substrate 2.0 μM, 15 min preincubation; mean ± SD, n ≥ 2; read-out: IC50
pIC50: −log10 of the molar value.
Would you kindly list pIC50 for each of these molecules?

pIC50 reading for CC1(C)S[C@@H]2[C@H](NC(=O)COc3ccccc3)C(=O)N2[C@H]1C(=O)O [Compound 12, penicillin V, reference compound] : < 4.30

pIC50 reading for CC1(C)[C@H](C(=O)OCc2ccccc2)N2C(=O)[C@@H](NC(=O)COc3ccccc3)[C@H]2S1(=O)=O : 5.18

pIC50 reading for CC1(C)S[C@@H]2[C@H](NC(=O)COc3ccccc3)C(=O)N2[C@H]1C(=O)OCc1ccccc1 : < 4.30

====

Molecular target: SARS-CoV-2 M^pro (Severe acute respiratory syndrome coronavirus 2)
Experiment: biochemical
Format: biochemical
Settings: Table 3; M^pro […], 37mer substrate 2.0 μM; mean ± SD, n ≥ 2; read-out: IC50
Would you kindly list pIC50 for each of these molecules?
Remember, pIC50 is on a log scale: it is -log10 of the molar concentration.

pIC50 reading for CC1(C)[C@H](C(=O)OCc2ccccc2)N2C(=O)[C@@H](NC(=O)CCc3ccccc3)[C@H]2S1(=O)=O [Compound 25b] : 4.34

pIC50 reading for CC1(C)[C@H](C(=O)OCc2ccccc2)N2C(=O)[C@@H](NC(=O)COc3ccccc3)[C@H]2S1(=O)=O [Compound 10, penicillin V sulfone benzyl ester] : 5.18

pIC50 reading for CC1(C)[C@H](C(=O)OCc2ccccc2)N2C(=O)[C@@H](NC(=O)COc3c(F)c(F)c(F)c(F)c3F)[C@H]2S1(=O)=O [Compound 25h] : 5.28

====

Molecular target: SARS-CoV-2 M^pro (Severe acute respiratory syndrome coronavirus 2)
Assay: biochemical
Type: biochemical
Conditions: Table 4; M^pro 0.15 μM, 37mer substrate 2.0 μM; mean ± SD, n ≥ 2; read-out: IC50
MEASURED_ATTRIBUTE: IC50

IC50 reading for CC1(C)[C@H](C(=O)OCc2ccccc2)N2C(=O)C(Br)(Br)[C@H]2S1(=O)=O : ~600 nM

IC50 reading for CC1(C)[C@H](C(=O)OCc2ccc([N+](=O)[O-])cc2)N2C(=O)C(Br)(Br)[C@H]2[S+]1[O-] (some centres unmarked) : ~600 nM

====

Would you kindly list IC50 for each of these molecules?
Biological target: SARS-CoV-2 M^pro (Severe acute respiratory syndrome coronavirus 2, UniProt P0DTD1)
Assay: biochemical
Assay type: biochemical
Details: Table 3; M^pro […], 37mer substrate 2.0 μM; mean ± SD, n ≥ 2; read-out: IC50

Form field, IC50 with SARS-CoV-2 M^pro (Severe acute respiratory syndrome coronavirus 2, UniProt P0DTD1), item CC1(C)[C@H](C(=O)OCc2ccccc2)N2C(=O)[C@@H](NC(=O)Cc3ccccc3)[C@H]2S1(=O)=O : > 50 µM

Form field, IC50 with SARS-CoV-2 M^pro (Severe acute respiratory syndrome coronavirus 2, UniProt P0DTD1), item CC1(C)[C@H](C(=O)OCc2ccccc2)N2C(=O)[C@@H](NC(=O)CNC(=O)c3ccccc3)[C@H]2S1(=O)=O [Compound 25d] : > 50 µM

Form field, IC50 with SARS-CoV-2 M^pro (Severe acute respiratory syndrome coronavirus 2, UniProt P0DTD1), item CC(Oc1ccccc1)C(=O)N[C@@H]1C(=O)N2[C@@H](C(=O)OCc3ccc(F)cc3)C(C)(C)S(=O)(=O)[C@H]12 (stereo partly drawn) [Compound 25j] : > 50 µM
